Items are presented alongside their recorded growth.
System: DU-145 prostate
protocol details: NCI-60 one-dose screen, 48 h (100 = growth as untreated, 0 = no growth, -100 = all killed)
condition set: 10 µM unless noted
This is part of a sample that, as a whole, favours compounds with a hit. Of some 83,000 tested, about 20% had one in any assay.
metric name: growth (%)

molecule: CCOC(=O)NNC(=S)Nc1ccccc1
tested system: DU-145 prostate
metric name: growth
recorded result: 118
--
molecule: COc1ccc(-c2c(N)n[nH]c2-c2cc(OC)c(OC)c(OC)c2)cc1
tested system: DU-145 prostate
metric name: growth
recorded result: 11
--
molecule: COc1ccc2c(c1)OC1=C(C(=O)OC1)C2c1cc(OC)c2c(c1)OCO2 (stereo not given)
tested system: DU-145 prostate
metric name: growth
recorded result: -17.9
--
molecule: C=C1CCC[C@]2(C)CCC[C@H](C)[C@@H](OC(C)=O)[C@@H]3OC(=O)C(=C)[C@@H]3C[C@H]1O2
tested system: DU-145 prostate
metric name: growth
recorded result: 85.5
--
molecule: COc1ccc2c(c1)[nH]c(=O)c1c3cccc(F)c3cn21
tested system: DU-145 prostate
metric name: growth
recorded result: 9.01
--
molecule: COc1cc(Cn2cc3c(c2)-c2oncc2CC3)cc(OC)c1OC
tested system: DU-145 prostate
metric name: growth
recorded result: -11
--
molecule: O=C1NN(C(=O)c2ccc(Cl)cc2)C(c2ccccc2)=N/C1=C\c1cn(-c2ccccc2)nc1-c1ccccc1
tested system: DU-145 prostate
metric name: growth
recorded result: 103
--
molecule: C=C1CCC2C(C)(CO)C(O)CCC2(C)C1C/C=C1/C(=O)OCC1Oc1ccccc1C (stereo not given)
tested system: DU-145 prostate
metric name: growth
recorded result: 82.8
--
molecule: Cc1ccc(C(=O)C2=Cc3cc4ccccc4n3Cc3cnnn32)cc1
tested system: DU-145 prostate
metric name: growth
recorded result: 113
--
molecule: O=C(c1ccccc1)C1OC1c1ccc([N+](=O)[O-])cc1 (stereo not given)
tested system: DU-145 prostate
metric name: growth
recorded result: 67.9
--
molecule: Cc1cc(C(C)(C)C)ccc1S
tested system: DU-145 prostate
metric name: growth
recorded result: 116
--
molecule: Cc1nn(-c2ccc(Cl)cc2)c2ncnc(N/N=C/c3cccc([N+](=O)[O-])c3)c12
tested system: DU-145 prostate
metric name: growth
recorded result: 68.7
--
molecule: CN1C(=O)N(C)C2C1NN=c1s/c(=C\c3cccnc3)c(=O)n12 (stereo not given)
tested system: DU-145 prostate
metric name: growth
recorded result: 95.5
--
molecule: COc1cc2c(=O)n(C3CCCCCC3)c3c4cc[nH]c4ncc3c2cc1OC
tested system: DU-145 prostate
metric name: growth
recorded result: 78
--
molecule: COc1cc(-c2nn(-c3cccc(NC(=O)Nc4cccc(C(F)(F)F)c4)c3)cc2-c2ccncc2)ccc1Cl
tested system: DU-145 prostate
metric name: growth
recorded result: 9.75
--
molecule: O=[N+]([O-])c1cc(Cl)c2[nH]c3c(Cl)cc([N+](=O)[O-])cc3c2c1
tested system: DU-145 prostate
metric name: growth
recorded result: 22.9
--
molecule: CCO/C=N/C1=C(C#N)C(c2ccc(Cl)cc2)c2c(c3ccccc3n(C)c2=O)O1 (stereo not given)
tested system: DU-145 prostate
metric name: growth
recorded result: 95.1
--
molecule: O=C(Oc1ccccc1[N+](=O)[O-])C1CCCN1C(=O)OCc1ccccc1 (stereo not given)
tested system: DU-145 prostate
metric name: growth
recorded result: 111
--
molecule: Clc1ccc(-c2nc3ccccc3s2)cc1Cl
tested system: DU-145 prostate
metric name: growth
recorded result: 112
--
molecule: CCOC(=O)C1=C(C)NC(C)=C(C(=O)OCC)C1(C)C
tested system: DU-145 prostate
metric name: growth
recorded result: 123
--
molecule: C=C1C(=O)O[C@@H]2[C@@H]3O[C@@](C)(CC/C=C(\C)CCC[C@@H]2C)[C@H](O)C[C@@H]13
tested system: DU-145 prostate
metric name: growth
recorded result: 50.1
--
molecule: O=C(/C=C/c1c[nH]c2ccccc12)c1ccc(O)c(CN2CCN(c3ccc(F)cc3)CC2)c1
tested system: DU-145 prostate
metric name: growth
recorded result: 107
--
molecule: COc1cc(-c2nn(-c3cccc(NC(=O)c4ccc(Cl)c(C(F)(F)F)c4)c3)cc2-c2ccncc2)ccc1Cl
tested system: DU-145 prostate
metric name: growth
recorded result: 65.4
--
molecule: COc1ccc(-c2nc(/C=N/Nc3cc(C)nc4ccc(Br)cc34)c(C)o2)cc1
tested system: DU-145 prostate
metric name: growth
recorded result: -90.2
--
molecule: C=C(C)[C@@H]1C[C@@H]2Cc3ccc(Cl)c(C)c3N1O2
tested system: DU-145 prostate
metric name: growth
recorded result: 97.3
--
molecule: C=C1c2nc3ccccc3n2C=C(c2ccc(Cl)cc2)N1Cc1ccccc1
tested system: DU-145 prostate
metric name: growth
recorded result: 103
--
molecule: COc1ccc2[nH]c(C(=O)OCc3ccc4c(Cl)cc(Cl)c(O)c4n3)cc2c1
tested system: DU-145 prostate
metric name: growth
recorded result: -98.2
--
molecule: C=C(C)[C@@H]1C[C@@H]2Cc3cc(F)ccc3N1O2
tested system: DU-145 prostate
metric name: growth
recorded result: 114
--
molecule: Cc1ccc(-c2cc3nc(-c4ccccc4)nc(C(Cl)Cl)n3n2)cc1
tested system: DU-145 prostate
metric name: growth
recorded result: -93.9
--
molecule: COc1ccc(-n2c(=S)sc3c(Cl)nc(C)nc32)c(OC)c1
tested system: DU-145 prostate
metric name: growth
recorded result: 6.39
--
molecule: CC1CN(c2oc(-c3ccccc3)nc2C#N)CC(C)O1 (stereo not given)
tested system: DU-145 prostate
metric name: growth
recorded result: 99.7
--
molecule: COc1ccc(C2=Nn3c(nnc3-n3nc(C)cc3C)SC2)cc1
tested system: DU-145 prostate
metric name: growth
recorded result: -15.9
--
molecule: N=C(N)c1ccc(-c2ccc(-c3ccc(-c4cccs4)s3)s2)cc1
tested system: DU-145 prostate
metric name: growth
recorded result: 90.4
--
molecule: C=C[C@@H]1C[C@@H]2Cc3cc(Cl)ccc3N1O2
tested system: DU-145 prostate
metric name: growth
recorded result: 111
--
molecule: CCNc1nc(S(=O)(=O)CC)nc2ccccc12
tested system: DU-145 prostate
metric name: growth
recorded result: 103
--
molecule: COc1ccc(C2=C(c3cc(OC)c(OC)c(OC)c3)C(=O)CC2)cc1
tested system: DU-145 prostate
metric name: growth
recorded result: -19.3
--
molecule: CC(C)(C)N1CCC1C(N)=O (stereo not given)
tested system: DU-145 prostate
metric name: growth
recorded result: 108
--
molecule: CC12CCC3C4(C)COC(c5ccccc5Cl)OC4CCC3(C)C1CC(C1=CCOC1=O)O2 (stereo not given)
tested system: DU-145 prostate
metric name: growth
recorded result: 83.9
--
molecule: CC(C)(C)n1cc(-c2ccnc(NCCCNS(=O)(=O)c3ccccc3)c2)c(-c2cccc(O)c2)n1
tested system: DU-145 prostate
metric name: growth
recorded result: 55.1
--
molecule: N/C(=N\S(=O)(=O)c1ccccc1)Nc1nc2ccccc2s1
tested system: DU-145 prostate
metric name: growth
recorded result: 111

* * *

System: ACHN renal
protocol details: NCI-60 one-dose screen, 48 h
condition set: 10 µM unless noted
This is part of a sample that, as a whole, favours compounds with a hit. Of some 83,000 tested, about 20% had one in any assay. Calls of active or inactive are those of the source. How the source made its calls: active means growth percent below 10; inactive means the rest.
Outcomes: active, inactive

compound: COC(OC)c1ccccc1
group: inactive
--
compound: CCN(CC)CCC(CNc1c2ccc(Cl)cc2nc2ccc(OC)cc12)c1ccccc1 (stereo not drawn)
group: active
--
compound: CCOC(=O)c1cc(C(=O)c2cc(OC)c(OC)c(OC)c2)n2c1ccc1ccccc12
group: inactive
--
compound: COc1cc(-c2nn(-c3cccc(NC(=O)c4cccc(C(F)(F)F)c4)c3)cc2-c2ccncc2)ccc1Cl
group: inactive
--
compound: COc1ccc(C(=O)N2NC(=O)/C(=C/c3ccc(F)cc3)N=C2c2ccccc2)cc1
group: inactive
--
compound: CN(C)CCCN(c1nc(C(Cl)(Cl)Cl)ns1)c1nc(C(Cl)(Cl)Cl)ns1
group: inactive
--
compound: COP(=O)(OC)/C(=N\NS(=O)(=O)c1ccc(C)cc1)c1ccccc1
group: inactive
--
compound: Cc1ccc(C(=O)C2=Cc3cc4ccccc4n3Cc3cnnn32)cc1
group: inactive

* * *

Tested on: SNB-19 CNS
protocol details: NCI-60 one-dose screen, 48 h (100 = growth as untreated, 0 = no growth, -100 = all killed)
condition set: 10 µM unless noted
The panel holds about 83,000 compounds, 20% with a hit somewhere; the sample as a whole holds those more often.

compound: Cc1ccc(S(=O)(=O)NCCNc2cc(-c3cn(C(C)(C)C)nc3-c3cccc(O)c3)ccn2)cc1
tested system: SNB-19 CNS
growth, %: 84.4

compound: O=C(Nc1ccc(NCCN2CCOCC2)nc1)c1ccc([N+](=O)[O-])cc1
tested system: SNB-19 CNS
growth, %: 106

compound: O=C(Nc1ccc2c(c1)OCO2)C(=O)c1c[nH]c2cc(F)ccc12
tested system: SNB-19 CNS
growth, %: 85.1

compound: CCOC(=O)c1c(/N=C2\SC(=O)/C(=C\C(=O)OC)N2NC)sc2c1CCN(C(=O)OCC)C2
tested system: SNB-19 CNS
growth, %: 99.2

compound: Cc1ccc(Nc2nnc(-c3ccc(Cl)cc3)o2)c(C)c1
tested system: SNB-19 CNS
growth, %: 95.8

compound: C=C[C@@H]1C[C@@H]2Cc3cc(Cl)ccc3N1O2
tested system: SNB-19 CNS
growth, %: 113

compound: COc1cc(Nc2ncccc2C(=O)NCc2cn(Cc3cccc(Oc4ccccc4)c3)nn2)cc(OC)c1
tested system: SNB-19 CNS
growth, %: 59.9

compound: COc1ccc(S(=O)(=O)n2ccc(-c3ccc4c(c3)CCC(C)(C)O4)n2)cc1OC
tested system: SNB-19 CNS
growth, %: 87.4

compound: CN(C[C@H]1Cc2c(cccc2N2CCN(Cc3ccccn3)CC2)CN1)[C@H]1CCCc2cccnc21
tested system: SNB-19 CNS
growth, %: 57.6

compound: O=C([O][Sn]([O]C(=O)c1ccccn1)([c]1ccccc1)[c]1ccccc1)c1ccccn1
tested system: SNB-19 CNS
growth, %: 105

compound: O=C(C1=Cc2cc3ccccc3n2Cc2cnnn21)c1ccccc1
tested system: SNB-19 CNS
growth, %: 32.2

compound: C=C(C)[C@@H]1C[C@@H]2Cc3cc(F)ccc3N1O2
tested system: SNB-19 CNS
growth, %: 105

compound: CCN(CC)c1ccc(C(=N)c2ccc(N(CC)CC)cc2)cc1
tested system: SNB-19 CNS
growth, %: 4.23

compound: COc1ccc(NC(=O)c2cc(OC)c(OC)c(OC)c2)cc1O
tested system: SNB-19 CNS
growth, %: 52.1

compound: COc1ccc(NC(=O)CSc2nc(-c3ccc(OC)c(OC)c3)cc(-c3cc(OC)c(OC)c(OC)c3)n2)cc1
tested system: SNB-19 CNS
growth, %: 91.3

compound: CCCCN(CCCC)c1ccc(C(=N)c2ccc(N(CCCC)CCCC)cc2)cc1
tested system: SNB-19 CNS
growth, %: -82.8

compound: O=[N+]([O-])c1cccc(-c2nc3sccn3c2-c2ccnc(NCCCNS(=O)(=O)c3ccc(Cl)cc3)n2)c1
tested system: SNB-19 CNS
growth, %: 83.5

compound: COc1ccc(Nc2nn3c(C)cc(C)nc3c2C(=O)Nc2ccc(C)cc2)c(OC)c1
tested system: SNB-19 CNS
growth, %: 101

compound: CN(C)c1ncnc2c1ccn2C1OC(CO)C(O)C1O (configuration not stated)
tested system: SNB-19 CNS
growth, %: 73.8

compound: O=C1/C(=C/c2ccc(Cl)cc2)CN(C(=O)CCN2CCC(=NO)CC2)C/C1=C\c1ccc(Cl)cc1
tested system: SNB-19 CNS
growth, %: -93.2

compound: CCO/C=N/C1=C(C#N)C(c2ccc(Cl)cc2)c2c(c3ccccc3n(C)c2=O)O1 (configuration not stated)
tested system: SNB-19 CNS
growth, %: 72.9

compound: CCCCCCCCCCCCCCCCCCNC(=O)[C@H]1CSC(c2cccs2)N1 (some centres not stated)
tested system: SNB-19 CNS
growth, %: 27.8

compound: O=C(O)c1cn(C2CC2)c2cc(N3CCN(C(=O)/C=C/c4ccc(Cl)cc4)CC3)c(F)cc2c1=O
tested system: SNB-19 CNS
growth, %: 82.8

compound: CCOC(=O)CN1/C(=N/c2sc3c(c2C(=O)OCC)CCN(C(=O)OCC)C3)SC(=O)/C1=C\C(=O)OC
tested system: SNB-19 CNS
growth, %: 91.5

compound: NC1=NN(O)C2=CC([N+](=O)[O-])C=CC2=N1 (configuration not stated)
tested system: SNB-19 CNS
growth, %: 119

compound: Cc1nc2cncc(C#Cc3cncc(C(=O)Nc4ccc(CN5CCN(C)CC5)c(C(F)(F)F)c4)c3)c2nc1C
tested system: SNB-19 CNS
growth, %: 49.7

compound: C=C1C(=O)O[C@H]2[C@H]1CC/C(Cn1cc(CNC(=O)/C=C/c3c[nH]c4ccccc34)nn1)=C\CC[C@@]1(C)O[C@@H]21
tested system: SNB-19 CNS
growth, %: 91.5

compound: COc1ccc(C(=O)c2cc(OC)c(OC)c(OC)c2OC)cc1O
tested system: SNB-19 CNS
growth, %: 40.6

compound: O=S(=O)(c1ccc(OCCO)cc1)c1ccc(OCCO)cc1
tested system: SNB-19 CNS
growth, %: 108

compound: Cc1cccc(/C=N/Nc2cc(C)c3cccc(C)c3n2)n1
tested system: SNB-19 CNS
growth, %: 92.7

compound: CC(C)(C)NCCC(O)c1cc2c(Cl)cc(Cl)cc2c2cc(C(F)(F)F)ccc12 (configuration not stated)
tested system: SNB-19 CNS
growth, %: -70.9

compound: CCc1cnc(=S)n(-c2ccccc2)c1
tested system: SNB-19 CNS
growth, %: 107
